assay: Rucaparib plasma pharmacokinetics in patients; type: in vivo, human; details: human, plasma, oral, 500 mg

# record.smiles, AUC(0-t), µg·h/mL
rows = [
    ("CNCc1ccc(-c2[nH]c3cc(F)cc4c3c2CCNC4=O)cc1", 4.7),
]

---

assay: Rucaparib plasma pharmacokinetics in patients; assay type: in vivo, human; conditions: human, plasma, oral, 500 mg, Tmax, mean (±SD), steady state, day 21, with bevacizumab, 500 mg BID, n 3
measured.metric: Tmax (h)

# molecule, output.unit, measured.result
records = [
    ("CNCc1ccc(-c2[nH]c3cc(F)cc4c3c2CCNC4=O)cc1 [rucaparib]", "h", 2),
]
